Target: CDK9/CycT1 (Homo sapiens, UniProt P50750)
Construct: Recombinant full-length His-tagged human CDK9 and CycT1; His; purchased Invitrogen PV4131; host or cells: insect cells
Sequence (P50750 whole entry): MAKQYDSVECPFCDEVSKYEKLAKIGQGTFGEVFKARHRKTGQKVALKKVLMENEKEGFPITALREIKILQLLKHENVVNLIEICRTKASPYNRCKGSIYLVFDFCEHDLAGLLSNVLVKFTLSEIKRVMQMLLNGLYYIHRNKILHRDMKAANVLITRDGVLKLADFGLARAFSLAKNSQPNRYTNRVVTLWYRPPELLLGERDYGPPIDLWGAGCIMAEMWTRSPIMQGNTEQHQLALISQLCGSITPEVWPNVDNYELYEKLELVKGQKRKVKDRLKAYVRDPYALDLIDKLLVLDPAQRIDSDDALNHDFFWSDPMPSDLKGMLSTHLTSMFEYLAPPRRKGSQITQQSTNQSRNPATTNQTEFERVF
Sequence (O60563 whole entry partner): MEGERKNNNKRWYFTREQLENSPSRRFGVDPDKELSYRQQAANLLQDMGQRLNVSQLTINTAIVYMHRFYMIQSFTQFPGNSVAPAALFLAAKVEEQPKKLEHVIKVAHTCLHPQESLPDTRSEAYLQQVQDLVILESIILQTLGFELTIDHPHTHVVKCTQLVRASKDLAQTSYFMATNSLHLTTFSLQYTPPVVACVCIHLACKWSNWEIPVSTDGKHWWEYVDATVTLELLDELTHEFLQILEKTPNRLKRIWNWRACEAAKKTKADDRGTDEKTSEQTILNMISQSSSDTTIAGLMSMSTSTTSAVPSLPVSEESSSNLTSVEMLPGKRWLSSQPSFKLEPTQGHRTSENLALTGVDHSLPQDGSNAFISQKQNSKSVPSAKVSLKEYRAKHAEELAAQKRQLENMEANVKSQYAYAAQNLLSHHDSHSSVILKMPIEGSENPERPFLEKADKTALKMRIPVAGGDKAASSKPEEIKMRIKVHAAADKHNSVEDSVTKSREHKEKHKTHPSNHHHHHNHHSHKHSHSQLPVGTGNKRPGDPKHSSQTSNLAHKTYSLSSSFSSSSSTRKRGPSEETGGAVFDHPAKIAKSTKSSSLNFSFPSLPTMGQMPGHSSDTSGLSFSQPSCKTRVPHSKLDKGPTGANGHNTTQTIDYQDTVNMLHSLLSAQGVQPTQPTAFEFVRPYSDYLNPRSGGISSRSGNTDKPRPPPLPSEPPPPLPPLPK
Experiment: CDK9/CycT1 kinase assay (TR-FRET, Method 1a)
Format: biochemical
Conditions: Methods 1a and 2a; minimal values where CDK9 IC50 is at the assay limit
The threshold is 6. Values of Selectivity CDK9 over CDK2: IC50 (CDK2)/IC50 (CDK9) beneath it are tagged satisfied; values meeting or exceeding it are tagged not satisfied.

Some solved entries appear below for comparison.
[
  {
    "compound": "C[S+]([O-])Cc1cc2nc(c1)OCCOc1cc(F)ccc1-c1cc(ncc1F)N2 (racemic) [Example 10]",
    "class-label": "not satisfied"
  },
  {
    "compound": "CSCc1cc2nc(c1)OCCCCOc1cc(F)ccc1-c1cc(ncc1F)N2 [Example 12]",
    "class-label": "not satisfied"
  },
  {
    "compound": "CN=S(C)(=O)Cc1cc2nc(c1)OCCCOc1cc(F)ccc1-c1cc(ncc1F)N2 (racemic) [Example 19]",
    "class-label": "satisfied"
  },
  {
    "compound": "CS(=N)(=O)Cc1cc2cc(c1)OCCCOc1cc(F)ccc1-c1nc(ncc1F)N2 (racemic) [Example 15]",
    "class-label": "not satisfied"
  }
]

Then this compound:
Task item: Lab log: compare recorded Selectivity CDK9 over CDK2: IC50 (CDK2)/IC50 (CDK9) with 6; is it strictly lower for CS(=N)(=O)Cc1cc2nc(c1)OCCCCOc1cc(F)ccc1-c1cc(ncc1F)N2 (racemic) [Example 14] ?
Reply: satisfied

====

I'd appreciate it if you could supply Target resident time values for the items below.
Molecular target: T1, human PTEFb (CDK9/Cyclin T1) (Homo sapiens, UniProt P50750)
T1 construct: purchased ProQinase, Freiburg, Germany
T1 sequence (P50750 whole entry): as the sequence (P50750 whole entry) above
T1 sequence (O60563 whole entry partner): as the sequence (O60563 whole entry partner) above
Assay: Surface plasmon resonance PTEFb
Format: binding
Conditions: SPR; 1/koff
Source text: 8. Surface Plasmon Resonance PTEFb The term “surface plasmon resonance”, as used herein, refers to an optical phenomenon that allows for the analysis of the reversible associations of biological molecules in real time within a biosensor matrix, for example using the Biacore® system (GE Healthcare Biosciences, Uppsala, Sweden). […] This angle shift can be measured. […] The ability of the compounds according to the invention to bind human PTEFb may be determined using surface plasmon resonance (SPR). […]

[
  {
    "compound": "C[S+]([O-])Cc1cc2nc(c1)OCCCOc1cc(F)ccc1-c1cc(ncc1F)N2 (racemic) [Example 4]",
    "value-measured": ">333 min"
  },
  {
    "compound": "CSCc1cc2nc(c1)OCCCOc1cc(F)ccc1-c1cc(ncc1F)N2 [Example 3]",
    "value-measured": ">333 min"
  },
  {
    "compound": "C[S+]([O-])Cc1cc2nc(c1)OCCOc1cc(F)ccc1-c1cc(ncc1F)N2 (racemic) [Example 10]",
    "value-measured": "6.8 min"
  },
  {
    "compound": "CSCc1cc2nc(c1)OCCCCOc1cc(F)ccc1-c1cc(ncc1F)N2 [Example 12]",
    "value-measured": ">333 min"
  },
  {
    "compound": "CS(=N)(=O)Cc1cc2cc(c1)OCCCOc1cc(F)ccc1-c1nc(ncc1F)N2 (racemic) [Example 15]",
    "value-measured": ">333 min"
  }
]

Give me Target resident time for each of these compounds, listed below.
1. CS(=N)(=O)Cc1cc2nc(c1)OCCCOc1cc(F)ccc1-c1cc(ncc1F)N2 (single isomer, unassigned; enantiomer 2) [Example 7]
2. CSCc1cc2nc(c1)OCCOc1cc(F)ccc1-c1cc(ncc1F)N2 [Example 9]
3. C[S+]([O-])Cc1cc2nc(c1)OCCCCOc1cc(F)ccc1-c1cc(ncc1F)N2 (racemic) [Example 13]
4. CS(=O)(Cc1cc2cc(c1)OCCCOc1cc(F)ccc1-c1nc(ncc1F)N2)=NC(=O)C(F)(F)F (racemic) [Example 16]
5. CS(=N)(=O)Cc1cc2nc(c1)OCCCOc1cc(F)ccc1-c1cc(ncc1F)N2 (racemic) [Example 5]

Reply:
[">333 min", "69.4 min", ">333 min", ">333 min", "179.2 min"]

Give me Target resident time for each of these compounds, listed below.
1. CS(=N)(=O)Cc1cc2nc(c1)OCCCCOc1cc(F)ccc1-c1cc(ncc1F)N2 (racemic) [Example 14]
2. CS(=N)(=O)Cc1cc2nc(c1)OCCCOc1cc(F)ccc1-c1cc(ncc1F)N2 (single isomer, unassigned; enantiomer 1) [Example 6]
3. CS(=N)(=O)Cc1cc2cc(c1)OCCCCOc1cc(F)ccc1-c1nc(ncc1F)N2 (racemic) [Example 1]
4. CS(=N)(=O)Cc1cc2nc(c1)OCCOc1cc(F)ccc1-c1cc(ncc1F)N2 (racemic) [Example 11]
5. CS(=O)(=O)Cc1cc2nc(c1)OCCCOc1cc(F)ccc1-c1cc(ncc1F)N2 [Example 8]

Reply:
[">333 min", ">333 min", ">333 min", "5.7 min", ">333 min"]
